# assayed-target: SARS-CoV-2 receptor-binding domain (amino acids 330-532), prototypical Wuhan/Victoria (SARS-CoV-2 (Wuhan/Victoria), UniProt P0DTC2 330-532)
# protocol-details: SPR, VHH analyte, biotinylated RBD ligand
Recorded measurements of Kd, one per entry

| binder | Kd [nM] |
| --- | --- |
| F2 (VHH, also called VHH F2) VHH: QVQLVESGGGLVQAGGSLRLACIASGRTFHSYVMAWFRQAPGKEREFVAAISWSSTPTYYGESVKGRFTISRDNAKNTVYLQMNRLKPEDTAVYFCAADRGESYYYTRPTEYEFWGQGTQVTVSS | 0.04 |
| C1 (VHH) VHH: QVQLVESGGGLVQPGGSLRLSCAASGFTNDFYSIAWFRQAPGKEREGVSWLSVSDNTPTYVDSVKDRFTISRHNANNTVYLQMNMLKPEDTAIYYCAAGRFAGRDTWPSSYDYWGQGTQVTVSS | 0.615 |
| C5 (VHH, also called VHH C5) VHH: QVQLVESGGGSVQAGGSLTLSCVASGVTLGRHAIGWFRQAPGKERERVSCIRTFDGITSYVESTKGRFTISSNNAMNTVYLQMNSLKPEDTAVYFCALGVTAACSDNPYFWGQGTQVTVSS | 0.099 |
| H3 (VHH) VHH: QVQLVESGGGLVKTGGSLRLSCAASGRTFSTYSMGWFRQAPGKEREFVAGMRWTGSSTFYSDSVKGRFTVSRNNAKDTVYLHMNSLKPEDTAVYYCAITTIVRAYYTEYTEADFGSWGQGTQVTVSS | 0.025 |
